Measured activity, negative = inhibition, listed per entry for reference.
Experimental details: Stat Signaling Pathway (AID 446);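 also: ME-180 cervical cancer cells given 40 pM IL-6 alongside compound; SIE-controlled beta-lactamase reporter measured as 460/530 nm FRET emission ratio; % is scaled to controls: 0 for no effect and ±100 for the full control effect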
Settings: ME-180 (cervical carcinoma) SIE beta-lactamase reporter, IL-6 stimulated, 5 h; at 7.69 µM (top of the series) unless noted
Inconclusive results are not listed.
Observed property: activity, negative = inhibition (%)

smiles_representation=COc1ccc(-c2nc3cnc(N(C)C)nc3n(C3CC3)c2=O)cc1 observed_property="activity, negative = inhibition" result=24.2
smiles_representation=COc1ccccc1CNc1cc(-c2ccoc2)ncn1 observed_property="activity, negative = inhibition" result=6.29
smiles_representation=COc1cccc(Cn2c(=O)c(CCc3ccccc3)nc3cnc(N4CCNCC4)nc32)c1 observed_property="activity, negative = inhibition" result=-8.25
smiles_representation=COc1ccc(C(=O)N2CCC3(CC2)CN(c2cccc(-c4ccccc4)c2)C3)cc1 observed_property="activity, negative = inhibition" result=-19.1
smiles_representation=O=c1c(-c2ccccc2)nc2cnc(N3CCOCC3)nc2n1Cc1cccs1 observed_property="activity, negative = inhibition" result=20.6
smiles_representation=COc1ccccc1CN1CC[C@@]2(CCCN(C(=O)c3ccco3)C2)C1 observed_property="activity, negative = inhibition" result=-8.66
smiles_representation=COc1ccc(C(=O)N2CCC3(CCN(C(=O)Nc4ccccc4)CC3)CC2)cc1 observed_property="activity, negative = inhibition" result=-6.61
smiles_representation=COc1ccccc1-c1cc(N(C)Cc2ccco2)ncn1 observed_property="activity, negative = inhibition" result=5.75
smiles_representation=CC(C)CN1CCC2(CC1)CCN(C(=O)c1cnccn1)CC2 observed_property="activity, negative = inhibition" result=3.68
